These data points were gathered from patent US8614206B2.

system: MM1.S (multiple myeloma) cells; assay: In vitro cell proliferation, MM1.S multiple myeloma cells (CellTiter-Glo, ATP); type: cell-based; details: 72 hours, read-out: Prolif MM1S ATP (EC50)
Define the label as label 1 when EC50 is strictly less than 900 nM and as label 0 in all remaining cases.

| Compound | Label Value |
| --- | --- |
| Cn1ncc(NC(=O)c2nc(-c3c(F)cccc3F)sc2N)c1N1CCC(N)CC2(CCO2)C1 (single isomer, unassigned) [Example 452] | label 1 |
| COC1(C)CCN(c2c(NC(=O)c3nc(-c4c(F)cccc4F)sc3N)cnn2C)CCC1N (single isomer, unassigned) [Example 503] | label 1 |
| CCn1ncc(NC(=O)c2nc(-c3c(F)cccc3F)sc2N)c1N1CCC(N)C(OC)CC1 (single isomer, unassigned) [Example 406] | label 1 |

Input line: In the record for COC1(C)CC(N)CCN(c2c(NC(=O)c3nc(-c4c(F)cccc4F)sc3N)cnn2C)C1 (single isomer, unassigned) [Example 352] , is EC50 less than 900 nM?
Output line: label 1

Input line: In the record for Cn1ncc(NC(=O)c2nc(-c3c(F)cccc3F)sc2N)c1N1CCC(N)CC2(CCO2)C1 (single isomer, unassigned) [Example 448] , is EC50 less than 900 nM?
Output line: label 0

Input line: In the record for CCOC1CCN(c2c(NC(=O)c3nc(-c4c(F)cccc4F)sc3N)cnn2C)CCC1N (centres unmarked) [Example 385] , is EC50 less than 900 nM?
Output line: label 1

Input line: In the record for Cn1ncc(NC(=O)c2nc(-c3c(F)cccc3F)sc2N)c1N1CCC(N)C(O)CC1 (single isomer, unassigned) [Example 328] , is EC50 less than 900 nM?
Output line: label 0

Input line: In the record for Cn1ncc(NC(=O)c2nc(-c3c(F)cccc3F)sc2N)c1C1CCC(N)CC(C)(O)C1 (single isomer, unassigned) [Example 467] , is EC50 less than 900 nM?
Output line: label 0

Input line: In the record for COC1CC(N)CCN(c2c(NC(=O)c3nc(-c4c(F)cccc4F)sc3N)cnn2C)C1 (centres unmarked) [Example 320] , is EC50 less than 900 nM?
Output line: label 1

Input line: In the record for CCn1ncc(NC(=O)c2nc(-c3c(F)cccc3F)sc2N)c1N1CCC(N)C(OC)CC1 (single isomer, unassigned) [Example 390] , is EC50 less than 900 nM?
Output line: label 1

Input line: In the record for Nc1sc(-c2c(F)cccc2F)nc1C(=O)Nc1cnn(CC(F)F)c1N1CCC(N)C(O)CC1 (single isomer, unassigned) [Example 398] , is EC50 less than 900 nM?
Output line: label 0

Input line: In the record for COC1CC(N)CCN(c2c(NC(=O)c3nc(-c4c(F)cccc4F)sc3N)cnn2C)C1 (centres unmarked) [Example 317] , is EC50 less than 900 nM?
Output line: label 1

Input line: In the record for COC1CC(N)CCN(c2c(NC(=O)c3nc(-c4c(F)cccc4F)sc3N)cnn2C)C1 (centres unmarked) [Example 321] , is EC50 less than 900 nM?
Output line: label 1

###

Notes on log10(Ki) obtained with PIM1 (Homo sapiens (Human), UniProt P11309).
Sequence (P11309 whole entry): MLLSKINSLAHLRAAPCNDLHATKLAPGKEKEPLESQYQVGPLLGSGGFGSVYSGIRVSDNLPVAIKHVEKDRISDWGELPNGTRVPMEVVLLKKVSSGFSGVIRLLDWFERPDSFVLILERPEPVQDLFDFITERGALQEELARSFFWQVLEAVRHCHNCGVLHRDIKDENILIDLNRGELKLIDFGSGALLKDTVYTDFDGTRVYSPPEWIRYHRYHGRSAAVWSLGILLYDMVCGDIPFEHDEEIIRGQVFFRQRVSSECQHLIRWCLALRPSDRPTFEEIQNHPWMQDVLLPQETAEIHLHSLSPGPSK
Quick note: numbers are log10 of Ki, with nM as the unit.

Past entries and their recorded results:
| Compound | Target Under Test | log10(Ki) |
| --- | --- | --- |
| C[C@H]1CN(c2c(NC(=O)c3nc(-c4c(F)cccc4F)sc3N)cnn2CC(F)(F)F)CCN1 | PIM1 (Homo sapiens (Human), UniProt P11309) | 0.32 |
| COC1CCC2(c3c(NC(=O)c4nc(-c5ccccc5F)sc4N)cnn3C)CCC1N2 (stereo not drawn) | PIM1 (Homo sapiens (Human), UniProt P11309) | -0.44 |
| COC1CCN(c2c(NC(=O)c3nc(-c4ccccc4F)sc3N)cnn2C)CCC1N (stereo not drawn) | PIM1 (Homo sapiens (Human), UniProt P11309) | -1.16 |
| Nc1sc(-c2c(F)cccc2F)nc1C(=O)Nc1cnn(C2CC2)c1N1CC[C@H](N)CC(F)(F)C1 | PIM1 (Homo sapiens (Human), UniProt P11309) | -2.00 |
| Nc1sc(-c2c(F)cccc2F)nc1C(=O)Nc1cnn(CC(F)(F)F)c1N1CCCCC(N)C1 (stereo not drawn) | PIM1 (Homo sapiens (Human), UniProt P11309) | -0.76 |

Now for a further compound.
Input line: State log10(Ki) on PIM1 (Homo sapiens (Human), UniProt P11309). Entry: `Cc1cc(-c2nc(C(=O)Nc3cnn(C)c3N3CC[C@@H](N)CC(F)(F)C3)c(N)s2)ccn1`
Output line: -1.22
